Attribution: PubChem BioAssay

- Tested on: Fibrinogen (Alexa647-labelled)
- ASSAY_METHOD_TEXT: Alexa647-fibrinogen binding to printed small molecules – biochemical, small-molecule microarray, 635/667 nm fluorescence, artefact control for SMM control-protein annotation, profiling panel (AID 1131);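 note: z-score merges 667 nm fluorescence with per-spot signal-to-noise over triplicate slides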
- EXPERIMENTAL_SETUP: fibrinogen-A647 binding fluorescence, higher = more signal
Cut-off 0.6 on composite z-score, inclusive. At or above means Met; below means Not met.

[[record]]
compound = "O=C1C2C=CC(C(O)C=Cc3ccc([N+](=O)[O-])cc3)N(Nc3ccccc3F)C2C(=O)N1c1ccccc1 (stereo not given)"
assayed_system = "Fibrinogen (Alexa647-labelled)"
answer_label = "Met"

[[record]]
compound = "C=C(C(=O)CC[C@H](OC(C)=O)c1ccccc1OCCO)C(C)C"
assayed_system = "Fibrinogen (Alexa647-labelled)"
answer_label = "Not met"

[[record]]
compound = "COc1ccc(-c2cc3c(c(Cc4ccccc4)n2)[Si](C(C)C)(C(C)C)OC3)cn1"
assayed_system = "Fibrinogen (Alexa647-labelled)"
answer_label = "Not met"

[[record]]
compound = "CCC(CC)C(O)C1C=CC2C(=O)N(c3ccccc3)C(=O)C2N1Nc1ccccc1 (stereo not given)"
assayed_system = "Fibrinogen (Alexa647-labelled)"
answer_label = "Met"

[[record]]
compound = "COCCOC(=O)N1C(=O)[C@@]2(c3cc(C#CC4(O)CCCCCC4)ccc31)[C@H](C(=O)Nc1nc3ccccc3s1)[C@H]1C(=O)O[C@H](c3ccccc3)[C@H](c3ccccc3)N1[C@@H]2c1ccc(OCCO)cc1"
assayed_system = "Fibrinogen (Alexa647-labelled)"
answer_label = "Met"

[[record]]
compound = "Cc1ccc(/C=C/C=O)cc1"
assayed_system = "Fibrinogen (Alexa647-labelled)"
answer_label = "Met"


Threshold query (composite z-score >= 0.6) on `C=CC[C@@]1(C(=O)N2CCCCC2)N=C(c2ccc(OCCCO)cc2)O[C@@H]1c1ccccc1N=[N+]=[N-]`
Met

Threshold query (composite z-score >= 0.6) on `CC(=CC1CCCCC1)[C@@H](NC(=O)c1cccnc1)c1ccc(-c2ccccc2)cc1`
Not met

Threshold query (composite z-score >= 0.6) on CN1C(=O)C2C=CC(C(O)c3ccc(F)cc3)N(N(c3ccccc3)c3ccccc3)C2C1=O (stereo not given)
Not met

Threshold query (composite z-score >= 0.6) on `C=CC[C@]1(C(N)=O)COC(c2ccc(OCCCO)cc2)=N1`
Not met

Threshold query (composite z-score >= 0.6) on `[N-]=[N+]=NCc1ccccc1[C@@H]1OC(c2ccc(OCCCO)cc2)=N[C@]1(CCS(=O)(=O)c1ccccc1)C(=O)N1CCCCC1`
Met

Threshold query (composite z-score >= 0.6) on `COc1ccccc1CN1C(=O)c2ccccc2[C@@H](C(=O)NCc2ccccc2)[C@@H]1c1ccc(CO)cc1`
Met

Threshold query (composite z-score >= 0.6) on `O=C(NC1CC1)[C@@H]1c2ccccc2C(=O)N(Cc2cc(F)cc(C(F)(F)F)c2)[C@H]1c1ccc(CO)cc1`
Not met

Threshold query (composite z-score >= 0.6) on `COC(=O)[C@@]1(Cc2ccccc2)[C@H]2c3cc(C(=O)N4CCCC4)n(Cc4ccc(O)c(OC)c4)c3C[C@H]2CN1C(=O)c1ccccc1`
Not met

Threshold query (composite z-score >= 0.6) on `COCC(=C=CC[C@H](O)c1cccc(OCCO)c1)C[C@H](O)c1cc(Cl)cc(Cl)c1O`
Not met

Threshold query (composite z-score >= 0.6) on `O=C1O[C@@H](c2ccccc2)[C@@H](c2ccccc2)N2[C@@H](c3ccccc3OCCO)[C@]3(C(=O)Nc4ccc(C#CC5(O)CCCCCC5)cc43)[C@@H](C(=O)N3CCN(c4ncccn4)CC3)[C@H]12`
Met

Threshold query (composite z-score >= 0.6) on `COCCOC(=O)N1C(=O)[C@@]2(c3cc(C#CC4(O)CCCCCC4)ccc31)[C@H](C(=O)Nc1nc3ccccc3s1)[C@H]1C(=O)O[C@H](c3ccccc3)[C@H](c3ccccc3)N1[C@@H]2c1ccccc1OCCO`
Met

Threshold query (composite z-score >= 0.6) on CCN(CC)c1ccc(N2CC=CC34O[C@@H]5/C=C\CCC(C)OC(=O)C5[C@H]3C(=O)N(CCCCCO)[C@@H]4C2=O)cc1 (stereo not given in full)
Not met

Threshold query (composite z-score >= 0.6) on [N-]=[N+]=NCc1ccccc1C[C@@]1(C(=O)NCC(O)CO)N=C(c2ccc(OCCCO)cc2)O[C@@H]1c1ccccc1 (stereo not given in full)
Not met

Threshold query (composite z-score >= 0.6) on `CC(C)NC(=O)[C@@]1(Cc2ccccc2I)c2ccccc2C(=O)N(Cc2ccccc2Cl)[C@H]1c1ccc(CO)cc1`
Not met

Threshold query (composite z-score >= 0.6) on Cc1ccc(C2C3C(=O)CC4C(=O)N(c5ccccc5)C(=O)C4C3CN2S(=O)(=O)c2ccc(C)cc2)cc1 (stereo not given)
Not met

Threshold query (composite z-score >= 0.6) on `CCOC(=O)[C@H]1C/C=C/C[C@H](C(=O)OCC)C(=O)O[C@H]2[C@@H](OC)O[C@H](CO)[C@@H](OC(=O)c3ccc(Br)cc3)[C@@H]2OC1=O`
Not met

Threshold query (composite z-score >= 0.6) on `CCOC(=O)C[C@H]1[C@H](OC(=O)c2ccc(C(=O)c3ccccc3)cc2)[C@@H](NC(=O)c2ccccc2)c2cc(OCCCO)ccc2N1C(=O)c1ccccc1`
Met

Threshold query (composite z-score >= 0.6) on `CCOC(=O)C[C@H]1[C@H](OC(=O)c2ccc(-c3ccccc3)cc2)[C@@H](NC(=O)c2ccccc2)c2cc(OCCCO)ccc2N1C(=O)c1ccc2ccccc2n1`
Met
